Values from ChEMBL document CHEMBL3994598

tested on: CAL-51; assay: Cytotoxicity against human CAL51 at 0.0003 to 100 uM after 48 hrs by ATPlite assay; format: cell-based; details: cal-51, 48 h
property: Activity

- COc1cc([C@@H]2Oc3c(O)cc(-c4oc5cc(O)cc(O)c5c(=O)c4O)cc3[C@H]2CO)ccc1O: Toxic
- COc1cc(-c2oc3c(O)cc(-c4oc5cc(O)cc(O)c5c(=O)c4O)cc3c2C)ccc1O: Toxic
- COc1cc([C@@H]2Oc3c(O)cc([C@@H]4CC(=O)c5c(O)cc(O)cc5O4)cc3[C@H]2CO)ccc1O: Toxic

###

system: PC-3; assay: Cytotoxicity against human PC3 cells at 0.0003 to 100 uM after 48 hrs by ATPlite assay; assay type: cell-based; conditions: pc-3, 48 h
property: Activity

* COc1cc([C@@H]2Oc3cc([C@H]4Oc5cc(O)cc(O)c5C(=O)[C@@H]4O)ccc3O[C@H]2CO)ccc1O | Toxic
* COc1cc(C2Oc3cc(-c4oc5cc(O)cc(O)c5c(=O)c4O)ccc3OC2CO)ccc1O (centres undefined) [DEHYDROSILYLBIN] | Toxic
* CC[C@@]1(O)C(=O)OCc2c1cc1n(c2=O)Cc2cc3ccccc3nc2-1 | Toxic

###

test system: Liver; experiment: Antioxidant activity against tert-butyl hydroperoxide-induced lipoperoxidation in rat liver microsomal membranes incubated for 60 mins by TBARS assay; format: functional, cell membranes, Microsomal Membrane; details: 1 h
# note: exactly 6 µM is not below, so it is False; use True for IC50 strictly under it

* COc1cc(-c2oc3c(O)cc([C@H]4Oc5cc(O)cc(O)c5C(=O)[C@@H]4O)cc3c2C)ccc1O | True
* COc1cc(-c2oc3c(O)cc(-c4oc5cc(O)cc(O)c5c(=O)c4O)cc3c2C)ccc1O | False
* COc1cc(C2Oc3cc([C@H]4Oc5cc(O)cc(O)c5C(=O)[C@@H]4O)ccc3OC2CO)ccc1O (mixture of isomers) | False
* COc1cc(C2Oc3c(O)cc([C@H]4Oc5cc(O)cc(O)c5C(=O)[C@@H]4O)cc3C2CO)ccc1O (stereo partly drawn) | False
* COc1cc(C2Oc3cc(-c4oc5cc(O)cc(O)c5c(=O)c4O)ccc3OC2CO)ccc1O (stereo not drawn) [DEHYDROSILYLBIN] | False
* COc1cc([C@@H]2Oc3c(O)cc(-c4oc5cc(O)cc(O)c5c(=O)c4O)cc3[C@H]2CO)ccc1O | True
* COc1cc([C@@H]2Oc3c(O)ccc([C@H]4Oc5cc(O)cc(O)c5C(=O)[C@@H]4O)c3[C@H]2CO)ccc1O | False
* COc1cc([C@@H]2Oc3c(O)cc([C@@H]4CC(=O)c5c(O)cc(O)cc5O4)cc3[C@H]2CO)ccc1O | False

###

system: BJ; assay: Cytotoxicity against human BJ cells at 0.0003 to 100 uM after 48 hrs by ATPlite assay; type: cell-based
property: Activity

• COc1cc([C@@H]2Oc3cc([C@H]4Oc5cc(O)cc(O)c5C(=O)[C@@H]4O)ccc3O[C@H]2CO)ccc1O = Toxic
• COc1cc(-c2oc3c(O)cc([C@H]4Oc5cc(O)cc(O)c5C(=O)[C@@H]4O)cc3c2C)ccc1O = Toxic
• COc1cc([C@@H]2Oc3c(O)cc(-c4oc5cc(O)cc(O)c5c(=O)c4O)cc3[C@H]2CO)ccc1O = Toxic
• COc1cc([C@@H]2Oc3c(O)ccc([C@H]4Oc5cc(O)cc(O)c5C(=O)[C@@H]4O)c3[C@H]2CO)ccc1O = Non-Toxic
• COc1cc([C@H]2Oc3cc([C@H]4Oc5cc(O)cc(O)c5C(=O)[C@@H]4O)ccc3O[C@@H]2CO)ccc1O = Toxic
• COc1cc(C2Oc3cc(-c4oc5cc(O)cc(O)c5c(=O)c4O)ccc3OC2CO)ccc1O (stereo not given) [DEHYDROSILYLBIN] = Toxic
• COc1cc(C2Oc3c(O)cc([C@H]4Oc5cc(O)cc(O)c5C(=O)[C@@H]4O)cc3C2CO)ccc1O (stereo not given in full) = Non-Toxic
• COc1cc(-c2oc3c(O)cc(-c4oc5cc(O)cc(O)c5c(=O)c4O)cc3c2C)ccc1O = Toxic
• CC[C@@]1(O)C(=O)OCc2c1cc1n(c2=O)Cc2cc3ccccc3nc2-1 = Toxic
• COc1cc([C@@H]2Oc3c(O)cc([C@@H]4CC(=O)c5c(O)cc(O)cc5O4)cc3[C@H]2CO)ccc1O = Toxic
